Data origin: ChEMBL document CHEMBL2375339

Cholinesterase (Equus caballus, UniProt P81908) data, read-out IC50
Sequence (P81908 whole entry): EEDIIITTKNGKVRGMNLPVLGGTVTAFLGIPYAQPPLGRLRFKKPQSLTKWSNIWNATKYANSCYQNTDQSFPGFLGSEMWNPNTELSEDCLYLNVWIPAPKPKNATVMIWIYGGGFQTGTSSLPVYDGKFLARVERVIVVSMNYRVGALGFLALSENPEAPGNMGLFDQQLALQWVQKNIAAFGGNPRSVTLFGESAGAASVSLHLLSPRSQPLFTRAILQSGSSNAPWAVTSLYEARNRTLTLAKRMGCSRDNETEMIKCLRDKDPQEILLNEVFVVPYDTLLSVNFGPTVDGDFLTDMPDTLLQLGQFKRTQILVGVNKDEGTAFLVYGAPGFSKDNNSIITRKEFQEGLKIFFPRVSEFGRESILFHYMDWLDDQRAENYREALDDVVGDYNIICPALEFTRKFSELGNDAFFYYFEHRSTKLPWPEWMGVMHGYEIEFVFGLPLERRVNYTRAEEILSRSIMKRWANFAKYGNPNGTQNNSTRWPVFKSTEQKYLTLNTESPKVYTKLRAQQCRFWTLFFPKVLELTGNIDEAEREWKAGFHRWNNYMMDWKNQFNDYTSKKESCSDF
Numeric answer only, unit µM assumed.

Here are 6 compounds together with their reported answers.
O=C(CCN1CCCC1)Nc1ccc2nc3c4[nH]c5ccccc5c4ccn3c(=O)c2c1 ... 14.9
O=C(CC[n+]1cccc(F)c1)Nc1ccc2nc3c4[nH]c5ccccc5c4ccn3c(=O)c2c1 ... 3.49
O=C(CCCc1ccccc1)Nc1ccc2nc3c4[nH]c5ccccc5c4ccn3c(=O)c2c1 ... 24.6
C[N+]1(CCC(=O)Nc2ccc3nc4c5[nH]c6ccccc6c5ccn4c(=O)c3c2)CCCC1 ... 17.1
Cn1cc[n+](CCC(=O)Nc2ccc3nc4c5[nH]c6ccccc6c5ccn4c(=O)c3c2)c1 ... 7.02
O=C(CCN1CCCCC1)Nc1ccc2nc3c4[nH]c5ccccc5c4ccn3c(=O)c2c1 ... 24

Now turn to the next compound.
INPUT: Under Cholinesterase (Equus caballus, UniProt P81908), report IC50 for CN1CCN(CCC(=O)Nc2ccc3nc4c5[nH]c6ccccc6c5ccn4c(=O)c3c2)CC1
OUTPUT: 28.9

---

Cholinesterase (Equus caballus, UniProt P81908) data, read-out pIC50
The meaning of pIC50 here: minus log10 of the concentration in molar units.

CCN(CC)CCC(=O)Nc1ccc2nc3c4[nH]c5ccccc5c4ccn3c(=O)c2c1 ... 4.55
O=C(CCN1CCOCC1)Nc1ccc2nc3c4[nH]c5ccccc5c4ccn3c(=O)c2c1 ... 4.56
O=C(CN1CCCC1)Nc1ccc2nc3c4[nH]c5ccccc5c4ccn3c(=O)c2c1 ... 4.84

INPUT: Under Cholinesterase (Equus caballus, UniProt P81908), report pIC50 for O=C(COc1cccnc1)Nc1ccc2nc3c4[nH]c5ccccc5c4ccn3c(=O)c2c1
OUTPUT: 5.14

INPUT: Under Cholinesterase (Equus caballus, UniProt P81908), report pIC50 for Cn1cc[n+](CC(=O)Nc2ccc3nc4c5[nH]c6ccccc6c5ccn4c(=O)c3c2)c1
OUTPUT: 5.13

INPUT: Under Cholinesterase (Equus caballus, UniProt P81908), report pIC50 for O=C(CN1CCCCC1)Nc1ccc2nc3c4[nH]c5ccccc5c4ccn3c(=O)c2c1
OUTPUT: 4.63
